Molecular target: T1, mfPRLR.mmh (soluble monomeric macaca fascicularis PRLR) (macaca fascicularis)
T1 construct: soluble monomeric PRLR protein; also called macaca fascicularis (mf) PRLR.mmh; monkey PRLR
T1 chain: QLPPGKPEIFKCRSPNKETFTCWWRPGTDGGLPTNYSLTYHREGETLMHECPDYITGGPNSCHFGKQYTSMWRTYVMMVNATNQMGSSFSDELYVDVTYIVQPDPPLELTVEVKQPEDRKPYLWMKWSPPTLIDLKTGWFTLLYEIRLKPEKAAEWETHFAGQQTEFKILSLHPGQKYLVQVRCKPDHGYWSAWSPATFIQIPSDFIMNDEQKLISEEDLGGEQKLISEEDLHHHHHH
Assay: SPR (Biacore), antibody capture, 37 C
hey, just use true (1) if measured T 1/2 is less than 4 min, otherwise false (0)

| binder | class |
| --- | --- |
| H1H6804P (antibody, human IgG1, V domains shown, human IgG1 Fc (H1H)) VH: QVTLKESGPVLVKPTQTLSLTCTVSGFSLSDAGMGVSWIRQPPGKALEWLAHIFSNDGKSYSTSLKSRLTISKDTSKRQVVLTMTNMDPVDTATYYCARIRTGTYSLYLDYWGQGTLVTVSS VL: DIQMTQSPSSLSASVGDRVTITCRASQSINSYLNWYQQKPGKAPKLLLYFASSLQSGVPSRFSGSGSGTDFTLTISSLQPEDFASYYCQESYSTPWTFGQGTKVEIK | true (1) |
| H1H6781P (antibody, human IgG1, V domains shown, human IgG1 Fc (H1H)) VH: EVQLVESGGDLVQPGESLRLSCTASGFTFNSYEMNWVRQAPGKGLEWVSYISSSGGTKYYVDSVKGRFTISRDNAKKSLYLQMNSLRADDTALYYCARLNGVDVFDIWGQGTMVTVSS VL: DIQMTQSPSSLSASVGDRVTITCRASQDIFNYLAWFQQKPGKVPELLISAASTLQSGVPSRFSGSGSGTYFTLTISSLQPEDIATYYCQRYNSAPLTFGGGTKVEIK | false (0) |

Task: # strict comparison: is reported T 1/2 < 4 min? input = H1H6803P (antibody, human IgG1, V domains shown, human IgG1 Fc (H1H)) VH: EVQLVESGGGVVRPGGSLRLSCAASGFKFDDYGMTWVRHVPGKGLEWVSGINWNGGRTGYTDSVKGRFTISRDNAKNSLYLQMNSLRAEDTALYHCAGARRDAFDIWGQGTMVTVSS VL: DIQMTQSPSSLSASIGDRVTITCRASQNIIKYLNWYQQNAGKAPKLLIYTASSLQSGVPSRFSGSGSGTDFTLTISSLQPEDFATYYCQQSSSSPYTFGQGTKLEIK
Result: false (0)

Task: What about H1H6801P (antibody, human IgG1, V domains shown, human IgG1 Fc (H1H)) VH: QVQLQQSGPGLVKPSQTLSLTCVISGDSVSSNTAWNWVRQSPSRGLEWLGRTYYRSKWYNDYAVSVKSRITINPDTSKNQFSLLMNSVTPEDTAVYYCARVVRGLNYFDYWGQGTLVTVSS VL: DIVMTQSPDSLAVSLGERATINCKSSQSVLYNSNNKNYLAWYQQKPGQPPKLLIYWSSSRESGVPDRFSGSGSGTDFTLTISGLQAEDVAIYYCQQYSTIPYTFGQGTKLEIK ?
Result: true (1)

Task: What about H1H6975N (antibody, human IgG1, V domains shown, also called H2M6975N) VH: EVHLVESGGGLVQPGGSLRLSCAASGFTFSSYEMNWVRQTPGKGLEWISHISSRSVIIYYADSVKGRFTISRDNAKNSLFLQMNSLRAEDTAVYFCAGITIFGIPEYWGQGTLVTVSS VL: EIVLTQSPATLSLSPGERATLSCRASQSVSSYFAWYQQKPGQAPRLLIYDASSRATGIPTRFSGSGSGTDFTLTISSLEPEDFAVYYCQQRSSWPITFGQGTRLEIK ?
Result: false (0)

Task: What about H1H6966N (antibody, human IgG1, V domains shown, also called H2M6966N) VH: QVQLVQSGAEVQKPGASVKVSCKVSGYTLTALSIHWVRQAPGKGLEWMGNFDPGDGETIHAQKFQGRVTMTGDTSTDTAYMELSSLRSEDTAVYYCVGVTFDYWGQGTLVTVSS VL: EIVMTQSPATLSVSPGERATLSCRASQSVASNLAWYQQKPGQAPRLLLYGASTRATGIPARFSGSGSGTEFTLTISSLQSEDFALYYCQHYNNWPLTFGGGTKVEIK ?
Result: false (0)

Task: What about H1H6782P (antibody, human IgG1, V domains shown, human IgG1 Fc (H1H)) VH: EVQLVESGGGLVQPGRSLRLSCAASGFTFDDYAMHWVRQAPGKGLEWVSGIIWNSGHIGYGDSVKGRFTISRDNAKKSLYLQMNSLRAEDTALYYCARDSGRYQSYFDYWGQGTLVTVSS VL: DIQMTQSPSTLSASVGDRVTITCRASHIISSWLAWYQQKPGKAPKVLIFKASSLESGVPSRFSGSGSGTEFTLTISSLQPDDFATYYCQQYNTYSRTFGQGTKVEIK ?
Result: false (0)

Task: What about H1H6797P (antibody, human IgG1, V domains shown, human IgG1 Fc (H1H)) VH: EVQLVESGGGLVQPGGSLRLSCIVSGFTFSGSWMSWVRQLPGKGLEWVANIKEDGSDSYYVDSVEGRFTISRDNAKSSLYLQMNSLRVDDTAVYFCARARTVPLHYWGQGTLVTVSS VL: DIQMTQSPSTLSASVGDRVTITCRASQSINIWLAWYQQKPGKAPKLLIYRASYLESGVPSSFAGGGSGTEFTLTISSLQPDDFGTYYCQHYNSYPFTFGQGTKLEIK ?
Result: true (1)
